// data source = paper PMC8330735

# Assay system: human recombinant COX-2 (Homo sapiens, UniProt P35354)
# Sequence (P35354 18-604): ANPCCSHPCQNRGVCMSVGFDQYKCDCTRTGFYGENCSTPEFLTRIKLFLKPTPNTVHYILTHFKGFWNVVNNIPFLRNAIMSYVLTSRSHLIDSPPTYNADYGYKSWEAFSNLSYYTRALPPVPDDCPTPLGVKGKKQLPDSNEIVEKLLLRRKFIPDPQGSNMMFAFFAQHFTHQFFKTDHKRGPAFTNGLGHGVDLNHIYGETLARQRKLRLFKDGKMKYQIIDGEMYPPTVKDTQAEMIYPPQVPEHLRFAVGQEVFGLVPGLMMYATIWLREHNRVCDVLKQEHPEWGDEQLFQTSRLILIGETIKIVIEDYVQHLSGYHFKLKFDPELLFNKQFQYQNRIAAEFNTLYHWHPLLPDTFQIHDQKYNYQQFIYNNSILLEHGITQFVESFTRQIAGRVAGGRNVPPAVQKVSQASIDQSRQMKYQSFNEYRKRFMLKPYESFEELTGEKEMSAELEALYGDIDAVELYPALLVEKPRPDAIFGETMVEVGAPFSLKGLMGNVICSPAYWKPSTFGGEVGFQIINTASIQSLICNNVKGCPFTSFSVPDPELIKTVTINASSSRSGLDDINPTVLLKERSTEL
# Test description: In vitro COX-2 inhibitory assay (colorimetric Cayman kit)
Recorded endpoint: pIC50
Conceptually, pIC50 converts a concentration in mol/L into minus its log10.

# Compound, pIC50
records = [
    ("NNC(=O)CSc1nc2ccccc2c(=O)n1NC(=O)Cc1ccccc1 [13b]", 7.35),
]

API: value(readout=pIC50, system=human recombinant COX-2 (Homo sapiens, UniProt P35354)) for record O=C(CSc1nc2ccccc2c(=O)n1NC(=O)Cc1ccccc1)NNC(=O)c1ccccc1 [14c]
7.40

API: value(readout=pIC50, system=human recombinant COX-2 (Homo sapiens, UniProt P35354)) for record CC(C)Cc1ccc(C(C)C(=O)NN2C(=O)c3ccccc3N(C)C2c2ccc(Cl)cc2)cc1 (stereo not shown) [7b]
7.40

API: value(readout=pIC50, system=human recombinant COX-2 (Homo sapiens, UniProt P35354)) for record O=C(CSc1nc2ccccc2c(=O)n1NC(=O)c1ccccc1)NNC(=O)c1ccccc1 [14a]
7.52

API: value(readout=pIC50, system=human recombinant COX-2 (Homo sapiens, UniProt P35354)) for record NNC(=O)CSc1nc2ccccc2c(=O)n1NC(=O)c1ccccc1 [13a]
7.40

API: value(readout=pIC50, system=human recombinant COX-2 (Homo sapiens, UniProt P35354)) for record CC(C)Cc1ccc(C(C)C(=O)NN2C(=O)c3ccccc3N(C)C2c2ccc([N+](=O)[O-])cc2)cc1 (stereo not shown) [7c]
7.43

API: value(readout=pIC50, system=human recombinant COX-2 (Homo sapiens, UniProt P35354)) for record CC(C)Cc1ccc(C(C)C(=O)NN2C(=O)c3ccccc3N(C)C2c2ccc(F)cc2)cc1 (stereo not shown) [7e]
7.40

API: value(readout=pIC50, system=human recombinant COX-2 (Homo sapiens, UniProt P35354)) for record O=C(CSc1nc2ccccc2c(=O)n1NC(=O)Cc1ccccc1)NNC(=O)c1ccc(Cl)cc1 [14d]
7.40

API: value(readout=pIC50, system=human recombinant COX-2 (Homo sapiens, UniProt P35354)) for record O=C(CSc1nc2ccccc2c(=O)n1NC(=O)c1ccccc1)NNC(=O)c1ccc(Cl)cc1 [14b]
7.40

API: value(readout=pIC50, system=human recombinant COX-2 (Homo sapiens, UniProt P35354)) for record COc1ccc(C2N(NC(=O)C(C)c3ccc(CC(C)C)cc3)C(=O)c3ccccc3N2C)cc1 (stereo not shown) [7d]
7.40
